tested on: PXR mRNA; test: Effect on PXR mRNA expression in rat hepatocytes at 30 uM by RT-PCR analysis relative to control; format: ADME, cell-based, Hepatocyte; settings: read-out: FC
Experimental Readout: fold induction at 30 µM

| Molecular String | Target System | Assay Value |
| --- | --- | --- |
| CC(C)(C)[C@]1(O)C[C@@H]2OC(=O)C[C@@]23C(=O)O[C@@H]2OC(=O)[C@H](O)[C@]213 | PXR mRNA | 0.8 |

====

test system: PXR mRNA; test: Effect on PXR mRNA expression in human hepatocytes at 50 uM by RT-PCR analysis relative to control; assay type: ADME, cell-based, Hepatocyte; conditions: read-out: FC
Experimental Readout: fold induction at 50 µM

| Molecular String | Assay Value |
| --- | --- |
| CC(C)(C)[C@]1(O)C[C@@H]2OC(=O)C[C@@]23C(=O)O[C@@H]2OC(=O)[C@H](O)[C@]213 | 0.4 |

Provenance of the data: ChEMBL document CHEMBL3526076
